target: Keap1/Nrf2 (Homo sapiens) (UniProt Q16236+Q14145); assay: Inhibition of Keap1-Nrf2 interaction in HEK293T cells assessed as induction of ARE-luciferase gene expression at 20 uM after 24 hrs relative to control; type: cell-based; conditions: HEK-293T
Sequence (Q14145 whole entry, looked up): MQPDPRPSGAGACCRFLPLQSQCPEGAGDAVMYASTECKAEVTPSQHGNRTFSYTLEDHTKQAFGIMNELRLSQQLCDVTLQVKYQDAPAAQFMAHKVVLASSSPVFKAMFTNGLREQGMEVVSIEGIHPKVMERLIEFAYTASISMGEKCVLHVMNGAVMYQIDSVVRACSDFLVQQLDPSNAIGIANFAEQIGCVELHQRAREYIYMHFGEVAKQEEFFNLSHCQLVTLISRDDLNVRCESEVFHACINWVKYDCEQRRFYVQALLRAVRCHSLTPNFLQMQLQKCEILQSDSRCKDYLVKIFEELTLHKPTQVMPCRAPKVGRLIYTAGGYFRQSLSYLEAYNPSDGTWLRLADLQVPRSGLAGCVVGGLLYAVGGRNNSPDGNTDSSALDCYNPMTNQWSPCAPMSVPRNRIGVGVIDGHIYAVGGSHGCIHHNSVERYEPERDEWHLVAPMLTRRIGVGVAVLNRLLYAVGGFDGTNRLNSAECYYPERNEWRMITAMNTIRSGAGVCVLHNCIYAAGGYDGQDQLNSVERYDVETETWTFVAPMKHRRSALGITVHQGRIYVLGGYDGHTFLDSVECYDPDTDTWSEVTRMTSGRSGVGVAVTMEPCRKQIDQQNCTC
Sequence (Q16236 whole entry, looked up): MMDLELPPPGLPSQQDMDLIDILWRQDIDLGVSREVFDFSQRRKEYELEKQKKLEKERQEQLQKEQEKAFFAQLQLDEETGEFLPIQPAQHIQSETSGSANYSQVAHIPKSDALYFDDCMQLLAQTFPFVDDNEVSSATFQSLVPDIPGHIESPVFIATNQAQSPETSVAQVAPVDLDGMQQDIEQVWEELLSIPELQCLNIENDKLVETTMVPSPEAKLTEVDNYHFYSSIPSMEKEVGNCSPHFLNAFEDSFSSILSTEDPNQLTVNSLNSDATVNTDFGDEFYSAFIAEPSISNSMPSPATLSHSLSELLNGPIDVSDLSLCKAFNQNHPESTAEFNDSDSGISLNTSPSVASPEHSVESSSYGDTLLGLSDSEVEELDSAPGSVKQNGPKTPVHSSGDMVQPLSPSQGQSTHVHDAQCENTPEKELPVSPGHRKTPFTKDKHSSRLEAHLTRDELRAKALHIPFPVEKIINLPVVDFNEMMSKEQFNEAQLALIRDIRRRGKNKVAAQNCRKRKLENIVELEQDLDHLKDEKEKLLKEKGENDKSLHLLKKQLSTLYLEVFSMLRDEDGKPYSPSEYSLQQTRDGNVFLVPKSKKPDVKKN
Endpoint: fold change (FC)

If you can, please state the reported fold change (FC) value of COC(=O)C1=CC(C)(C)CC(CC(C)=O)C1=O (stereo not drawn) .
2.2

If you can, please state the reported fold change (FC) value of CCCCCCC1CC(C)(C)C=C(C(=O)OC)C1=O (stereo not drawn) .
2

If you can, please state the reported fold change (FC) value of CC1(C)C=C(C(=O)OC(C)(C)C)C(=O)CC1 .
3.89
